tested on: Trypanosoma brucei; test: Inhibition of Trypanosoma brucei PTR1 at 50 uM using H2B as substrate incubated for 10 mins followed by addition of NADPH measured for 10 to 50 mins
endpoint.label: inhibition

Please look at this compound and report its inhibition: O=c1c(O)c(-c2ccc(O)cc2)oc2ccc(O)cc12
3%

Continuing:
Respond only with inhibition recorded for O=c1c(O)c(-c2ccc(O)c(O)c2)oc2cc(O)ccc12
53%

Note inhibition for the compound shown: O=c1c(O)c(-c2ccc(O)cc2)oc2cc(O)ccc12
33%
